system: TK-10 renal; assay: NCI-60 one-dose screen, 48 h; conditions: 10 µM unless noted
Compounds without any hit were thinned out: in the full panel of roughly 83,000, 20% have a hit. Calls of active or inactive are those of the source. The calls were made as follows: active = growth percent below 10; inactive = the rest.
Outcome codes: T (active), F (inactive)

[
  {
    "compound": "O=C1NC(=O)C(=Cc2cn(C(=O)c3ccccc3)c3ccccc23)C(=O)N1",
    "assayed-target": "TK-10 renal",
    "qualitative-label": "F"
  },
  {
    "compound": "Nc1ccc(OCCNS(=O)(=O)c2cccc(S(=O)(=O)F)c2)c(Cl)c1",
    "assayed-target": "TK-10 renal",
    "qualitative-label": "F"
  },
  {
    "compound": "C[N+](C)(C)Cc1cc(Cl)ccc1O",
    "assayed-target": "TK-10 renal",
    "qualitative-label": "F"
  },
  {
    "compound": "CC[C@H](C)[C@H](NC(=O)c1nccn1C)C(=O)N(C)[C@H](C[C@@H](OC(C)=O)c1nc(C(=O)N[C@@H](Cc2ccccc2)C[C@H](C)C(=O)OC)cs1)C(C)C",
    "assayed-target": "TK-10 renal",
    "qualitative-label": "F"
  },
  {
    "compound": "O=P1(NCCCl)OCCCN1CCCl (configuration not stated)",
    "assayed-target": "TK-10 renal",
    "qualitative-label": "F"
  },
  {
    "compound": "CN(C)C(=O)Oc1ccccc1",
    "assayed-target": "TK-10 renal",
    "qualitative-label": "F"
  },
  {
    "compound": "O=[N+]([O-])c1cc(I)cc([N+](=O)[O-])c1",
    "assayed-target": "TK-10 renal",
    "qualitative-label": "F"
  },
  {
    "compound": "Fc1ccc(C2=CCNCC2)cc1",
    "assayed-target": "TK-10 renal",
    "qualitative-label": "F"
  },
  {
    "compound": "C/C(=C\\c1ccn(-c2ccc(N)cc2)n1)[C@@H]1C[C@@H]2O[C@]2(C)CCC[C@H](C)[C@H](O)[C@@H](C)C(=O)C(C)(C)[C@@H](O)CC(=O)O1",
    "assayed-target": "TK-10 renal",
    "qualitative-label": "F"
  },
  {
    "compound": "Cn1cc(-c2csc(-c3cn(CCCCN4CCCCC4)c4ccc(F)cc34)n2)c2cccnc21",
    "assayed-target": "TK-10 renal",
    "qualitative-label": "F"
  },
  {
    "compound": "COc1ccc(/C=C\\c2cc(OC)c(OC)c(OC)c2)cc1NS(=O)(=O)c1ccc(Cl)cc1",
    "assayed-target": "TK-10 renal",
    "qualitative-label": "F"
  },
  {
    "compound": "O=C(N/N=C\\c1ccc(N(CCCl)CCCl)cc1Cl)c1cccnc1",
    "assayed-target": "TK-10 renal",
    "qualitative-label": "T"
  },
  {
    "compound": "COc1ccc([As]=[As]c2ccc(OC)c(NCS(=O)(=O)O)c2)cc1NCS(=O)(=O)O (configuration not stated)",
    "assayed-target": "TK-10 renal",
    "qualitative-label": "T"
  },
  {
    "compound": "Cc1ccc(C(Cc2ccccc2)NCCO)cc1 (configuration not stated)",
    "assayed-target": "TK-10 renal",
    "qualitative-label": "F"
  },
  {
    "compound": "CC(CC1CCCCC1)NCc1ccccc1 (configuration not stated)",
    "assayed-target": "TK-10 renal",
    "qualitative-label": "F"
  },
  {
    "compound": "CCN(CCO)C(Cc1ccccc1)c1ccccc1 (configuration not stated)",
    "assayed-target": "TK-10 renal",
    "qualitative-label": "F"
  },
  {
    "compound": "CC(C)OC(=O)[C@H](C)NP(=O)(Oc1ccccc1)C1CCCN(O)C1=O (some centres not stated)",
    "assayed-target": "TK-10 renal",
    "qualitative-label": "F"
  },
  {
    "compound": "O=C1C2CC=CCC2C(=O)N1SC(Cl)(Cl)Cl (configuration not stated)",
    "assayed-target": "TK-10 renal",
    "qualitative-label": "F"
  },
  {
    "compound": "COc1ccc(O)c(CNC(=O)CN2CCCC2=O)c1",
    "assayed-target": "TK-10 renal",
    "qualitative-label": "F"
  },
  {
    "compound": "COc1ccc2c(c1)c(-c1nc(-c3cn(C)c4ncccc34)cs1)cn2CCCCN1CCCCC1",
    "assayed-target": "TK-10 renal",
    "qualitative-label": "T"
  },
  {
    "compound": "COC(=O)[C@@H](C)C[C@H](Cc1ccccc1)NC(=O)c1nc([C@@H](C[C@H](C(C)C)N(C)C(=O)[C@@H](NC(=O)[C@H]2CCCCN2C)C(C)C)OC(C)=O)sc1C(C)C",
    "assayed-target": "TK-10 renal",
    "qualitative-label": "F"
  },
  {
    "compound": "CCOC(=O)[C@@H](C)C[C@H](Cc1ccccc1)NC(=O)c1csc([C@@H](C[C@H](C(C)C)N(C)C(=O)[C@@H](NC(=O)[C@H]2CCCCN2C)C(C)(C)CC)OC(C)=O)n1",
    "assayed-target": "TK-10 renal",
    "qualitative-label": "F"
  },
  {
    "compound": "CC(=O)c1ccc(C(=O)NCC2CCC3(CC2)OOC2(CCCCC2)OO3)cc1",
    "assayed-target": "TK-10 renal",
    "qualitative-label": "F"
  },
  {
    "compound": "C/C(=C\\c1ccn(-c2ccc(N)cc2C(F)(F)F)n1)[C@@H]1C[C@@H]2O[C@]2(C)CCC[C@H](C)[C@H](O)[C@@H](C)C(=O)C(C)(C)[C@@H](O)CC(=O)O1",
    "assayed-target": "TK-10 renal",
    "qualitative-label": "F"
  },
  {
    "compound": "Clc1cccc(Cl)c1Cl",
    "assayed-target": "TK-10 renal",
    "qualitative-label": "F"
  },
  {
    "compound": "O=C(NCCN1CC1)C(=O)NCCN1CC1",
    "assayed-target": "TK-10 renal",
    "qualitative-label": "F"
  },
  {
    "compound": "COC(=O)[C@H](C[C@H](Cc1ccccc1)NC(=O)c1csc([C@@H](C[C@H](C(C)C)N(C)C(=O)[C@@H](NC(=O)[C@H]2CCCCN2C)C(C)C)OC(C)=O)n1)NC(=O)OCc1ccccc1",
    "assayed-target": "TK-10 renal",
    "qualitative-label": "F"
  },
  {
    "compound": "OCCNC(Cc1ccccc1)c1ccc2c(c1)OCO2 (configuration not stated)",
    "assayed-target": "TK-10 renal",
    "qualitative-label": "F"
  },
  {
    "compound": "CCOc1ccccc1C(=O)OCC(Cl)(Cl)Cl",
    "assayed-target": "TK-10 renal",
    "qualitative-label": "F"
  },
  {
    "compound": "CCOC(=O)[C@@H](C)C[C@H](Cc1ccccc1)NC(=O)c1csc([C@@H](C[C@H](C(C)C)N(C)C(=O)[C@@H](NC(=O)[C@H]2CCCCN2C)C(C)(C)C)OC(C)=O)n1",
    "assayed-target": "TK-10 renal",
    "qualitative-label": "F"
  },
  {
    "compound": "C#Cc1ccc2c(c1)C(c1ccccc1F)=NCC(=O)N2C",
    "assayed-target": "TK-10 renal",
    "qualitative-label": "F"
  },
  {
    "compound": "COc1ccc(/C=C\\c2cc(OC)c(OC)c(OC)c2)c(NS(=O)(=O)c2ccc(F)cc2)c1O",
    "assayed-target": "TK-10 renal",
    "qualitative-label": "F"
  },
  {
    "compound": "CC[C@H](C)[C@H](NC(=O)[C@H]1CCCCN1C)C(=O)N(C)[C@H](CC(=O)c1nc(C(=O)N[C@@H](Cc2ccccc2)C[C@H](C)C(=O)O)cs1)C(C)C",
    "assayed-target": "TK-10 renal",
    "qualitative-label": "F"
  },
  {
    "compound": "COC(=O)[C@@H](C)C[C@H](Cc1ccccc1)NC(=O)c1nc([C@@H](C[C@H](C(C)C)N(C)C(=O)[C@@H](NC(=O)[C@H]2CC(=O)CCN2C)C(C)C)OC(C)=O)sc1C(C)C",
    "assayed-target": "TK-10 renal",
    "qualitative-label": "F"
  },
  {
    "compound": "CCC[CH2][Sn]([CH2]CCC)([CH2]CCC)[O]c1ccc(Cl)cc1Cl",
    "assayed-target": "TK-10 renal",
    "qualitative-label": "T"
  },
  {
    "compound": "CCCCNC(c1ccc(Cl)cc1)C(O)c1ccc(Cl)cc1 (configuration not stated)",
    "assayed-target": "TK-10 renal",
    "qualitative-label": "F"
  },
  {
    "compound": "CC(C)[C@]12O[C@H]1[C@@H]1O[C@]13[C@]1(O[C@H]1C[C@H]1c4c(C(=O)c5ccccc5)oc(OC(=O)c5ccccc5)c4CC[C@@]13C)[C@@H]2O",
    "assayed-target": "TK-10 renal",
    "qualitative-label": "F"
  }
]
